assay-system: NS3a inactive (S139A) (Hepatitis C virus genotype 1b, UniProt Q9WMX2, A1176V/E1056D/L1047A/L1120M/Q1112P/R1052K/S1165A/V1062L/V1196I)
Construct: Avi-His6-NS3a; the text calls the FP protein non-biotinylated) (N)
assay-explanation: Fluorescence polarization competition assay with FAM-ANR
measurement-context: 75 nM NS3a, read-out: apparent IC50
measured-parameter: IC50

// recorded IC50 for `CC(C)(C)OC(=O)N[C@H]1CCCCC/C=C\[C@@H]2C[C@@]2(C(=O)NS(=O)(=O)C2CC2)NC(=O)[C@@H]2C[C@@H](OC(=O)N3Cc4cccc(F)c4C3)CN2C1=O` : < 0.075 µM

====

assay-system: NS3a active (Hepatitis C virus genotype 1b, UniProt Q9WMX2, A1176V/E1056D/L1047A/L1120M/Q1112P/R1052K/V1062L/V1196I)
Construct: Avi-His6-NS3a
assay-explanation: Fluorescence polarization competition assay with FAM-ANR
measurement-context: NS3a active, 75 nM NS3a, FAM-ANR; read-out: apparent IC50
measured-parameter: IC50

// recorded IC50 for `CC(C)(C)OC(=O)N[C@H]1CCCCC/C=C\[C@@H]2C[C@@]2(C(=O)NS(=O)(=O)C2CC2)NC(=O)[C@@H]2C[C@@H](OC(=O)N3Cc4cccc(F)c4C3)CN2C1=O` : < 75 nM
